test system: HeLa Kyoto; assay: melting temperature (median over replicates), in situ; higher = more thermally stable; details: cell cycle stage: mitosis;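 also: HeLa Kyoto cells synchronized by double thymidine or nocodazole block, proteins quantified by TMT10plex mass spectrometry, three independent biological replicates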
# maps each entry to its melting temperature

| seq text | melting temperature, °C |
| --- | --- |
| MTDAAVSFAKDFLAGGVAAAISKTAVAPIERVKLLLQVQHASKQITADKQYKGIIDCVVRIPKEQGVLSFWRGNLANVIRYFPTQALNFAFKDKYKQIFLGGVDKRTQFWLYFAGNLASGGAAGATSLCFVYPLDFARTRLAADVGKAGAEREFRGLGDCLVKIYKSDGIKGLYQGFNVSVQGIIIYRAAYFGIYDTAKGMLPDPKNTHIVISWMIAQTVTAVAGLTSYPFDTVRRRMMMQSGRKGTDIMYTGTLDCWRKIARDEGGKAFFKGAWSNVLRGMGGAFVLVLYDEIKKYT [SLC25A5] | 55.9 |
| MSGQRVDVKVVMLGKEYVGKTSLVERYVHDRFLVGPYQNTIGAAFVAKVMSVGDRTVTLGIWDTAGSERYEAMSRIYYRGAKAAIVCYDLTDSSSFERAKFWVKELRSLEEGCQIYLCGTKSDLLEEDRRRRRVDFHDVQDYADNIKAQLFETSSKTGQSVDELFQKVAEDYVSVAAFQVMTEDKGVDLGQKPNPYFYSCCHH [RAB24] | 54.2 |
